- systemTested: human D3 receptors (Homo sapiens (Human))
- Sequence (P35462 whole entry, looked up): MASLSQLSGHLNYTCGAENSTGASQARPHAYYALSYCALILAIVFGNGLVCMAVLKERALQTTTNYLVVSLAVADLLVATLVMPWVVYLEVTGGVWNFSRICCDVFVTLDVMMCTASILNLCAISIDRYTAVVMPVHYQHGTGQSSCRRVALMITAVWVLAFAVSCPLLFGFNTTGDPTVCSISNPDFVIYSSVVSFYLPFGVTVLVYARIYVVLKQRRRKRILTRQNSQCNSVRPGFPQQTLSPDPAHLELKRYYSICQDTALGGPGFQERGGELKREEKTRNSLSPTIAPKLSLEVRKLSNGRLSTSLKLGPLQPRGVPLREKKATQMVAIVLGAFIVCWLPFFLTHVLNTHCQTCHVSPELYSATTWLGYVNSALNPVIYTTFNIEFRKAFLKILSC
- Sequence (P32121 whole entry partner, looked up): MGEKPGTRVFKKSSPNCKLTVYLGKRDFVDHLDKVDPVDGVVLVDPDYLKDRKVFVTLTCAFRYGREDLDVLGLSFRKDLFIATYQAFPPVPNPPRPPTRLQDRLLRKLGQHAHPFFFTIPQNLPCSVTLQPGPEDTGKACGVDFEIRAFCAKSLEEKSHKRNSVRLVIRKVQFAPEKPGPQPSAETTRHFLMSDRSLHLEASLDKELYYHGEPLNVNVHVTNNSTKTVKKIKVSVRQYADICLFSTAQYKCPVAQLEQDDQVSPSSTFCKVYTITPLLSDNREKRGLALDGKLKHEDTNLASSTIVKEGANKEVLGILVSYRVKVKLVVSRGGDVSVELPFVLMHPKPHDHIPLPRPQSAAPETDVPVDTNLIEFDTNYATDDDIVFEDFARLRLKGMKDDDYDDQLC
- assayMethodText: β-arrestin recruitment to human dopamine D3 receptors (PathHunter CHO-K1)
- Type: cell-based
observedProperty: EC50 (nM)
Entry rule: numbers only, all in nM.

What value of EC50 has been recorded for this entry: `COCN(C)C(=O)N[C@H]1CC[C@H](CCN2CCN(c3cccc(Cl)c3Cl)CC2)CC1`
3.89
